- system name: UniProtKB P13569
- Sequence (P13569 with tags, fused parts or gaps DEL508-508): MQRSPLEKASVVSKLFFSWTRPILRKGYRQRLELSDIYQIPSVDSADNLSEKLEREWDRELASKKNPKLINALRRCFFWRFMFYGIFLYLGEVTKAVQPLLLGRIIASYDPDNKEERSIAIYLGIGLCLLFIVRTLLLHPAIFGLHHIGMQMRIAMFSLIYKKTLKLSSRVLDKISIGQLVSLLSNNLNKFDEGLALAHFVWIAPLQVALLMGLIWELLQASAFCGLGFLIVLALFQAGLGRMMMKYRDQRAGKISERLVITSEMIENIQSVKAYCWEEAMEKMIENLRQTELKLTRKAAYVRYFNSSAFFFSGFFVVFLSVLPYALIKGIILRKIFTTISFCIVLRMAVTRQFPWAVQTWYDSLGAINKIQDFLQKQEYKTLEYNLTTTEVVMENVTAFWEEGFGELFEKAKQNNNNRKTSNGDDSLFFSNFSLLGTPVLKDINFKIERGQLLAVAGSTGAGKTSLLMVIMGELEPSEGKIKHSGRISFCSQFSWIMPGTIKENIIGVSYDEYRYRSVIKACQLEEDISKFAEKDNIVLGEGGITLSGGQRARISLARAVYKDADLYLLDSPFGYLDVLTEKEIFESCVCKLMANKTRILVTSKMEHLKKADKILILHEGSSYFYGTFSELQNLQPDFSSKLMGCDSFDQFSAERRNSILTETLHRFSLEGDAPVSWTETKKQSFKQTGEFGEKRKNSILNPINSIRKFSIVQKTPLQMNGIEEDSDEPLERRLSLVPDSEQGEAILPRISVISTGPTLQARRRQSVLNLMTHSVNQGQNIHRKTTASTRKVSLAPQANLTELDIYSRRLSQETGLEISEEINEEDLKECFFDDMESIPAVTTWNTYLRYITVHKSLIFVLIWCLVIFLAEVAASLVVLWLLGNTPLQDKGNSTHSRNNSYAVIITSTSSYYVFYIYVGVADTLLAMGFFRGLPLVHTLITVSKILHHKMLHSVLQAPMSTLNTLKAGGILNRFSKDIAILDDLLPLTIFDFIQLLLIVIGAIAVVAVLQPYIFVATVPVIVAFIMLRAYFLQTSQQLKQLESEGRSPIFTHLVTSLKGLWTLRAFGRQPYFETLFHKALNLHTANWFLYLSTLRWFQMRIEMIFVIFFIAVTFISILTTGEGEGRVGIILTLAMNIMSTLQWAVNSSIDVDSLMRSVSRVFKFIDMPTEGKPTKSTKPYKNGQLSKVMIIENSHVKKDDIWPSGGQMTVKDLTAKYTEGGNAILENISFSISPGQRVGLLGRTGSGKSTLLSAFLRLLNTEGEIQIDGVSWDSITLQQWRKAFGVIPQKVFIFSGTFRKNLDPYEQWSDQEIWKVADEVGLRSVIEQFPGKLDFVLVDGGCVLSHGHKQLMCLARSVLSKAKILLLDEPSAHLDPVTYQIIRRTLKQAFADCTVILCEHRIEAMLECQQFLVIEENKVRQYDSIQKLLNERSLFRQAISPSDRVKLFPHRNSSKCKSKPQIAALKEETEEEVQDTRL
- procedure summary: Membrane Potential Dye, Enteroid Assay B
- Format: cell-based
- condition set: Table 9
measured property: Ent. B Max Activity

## Input Can you look up the measured Ent. B Max Activity of Cc1cccc(/C=C/C2CC2)c1-c1cc2nc(n1)NS(=O)(=O)c1cccc(c1)C(=O)N[C@H](CC(C)C)CO2 for me?
## Output +++ (+++ is >60%)

## Input Param item: Cc1cccc(C)c1-c1cc2nc(n1)NS(=O)(=O)c1cccc(c1)C(=O)N[C@@H]1CN(C3CCC4(CC3)CC4)C[C@H]1O2
## Output ++ (++ is 30-60%)

## Input Param item: Cc1cccc(C)c1-c1cc2nc(n1)NS(=O)(=O)c1cccc(c1)C(=O)N[C@@H](C(CC(C)C)c1ccccc1)CO2 (stereo in doubt) [Compound 183]
## Output +++ (+++ is >60%)

## Input Param item: Cc1cccc(C)c1-c1cc2nc(n1)NS(=O)(=O)c1cccc(c1)C(=O)N[C@@H]1CN(C(=O)CC(C)(C)C)C[C@H]1O2
## Output ++ (++ is 30-60%)

## Input Param item: Cc1cccc(C)c1-c1cc2nc(n1)NS(=O)(=O)c1cccc(c1)C(=O)N[C@@H]1CN(c3ccc(C(F)(F)F)cn3)C[C@H]1O2
## Output ++ (++ is 30-60%)

## Input Param item: Cc1cccc(C)c1-c1cc2nc(n1)NS(=O)(=O)c1cccc(c1)C(=O)NCC(c1ccc(C34CC(C3)C4)cc1)O2 (centres unmarked)
## Output ++ (++ is 30-60%)

## Input Param item: Cc1cccc(C)c1-c1cc2nc(n1)NS(=O)(=O)c1cccc(c1)C(=O)N[C@@H]1CN(Cc3ccccc3)C[C@H]1O2
## Output +++ (+++ is >60%)

## Input Param item: Cc1cccc(C)c1-c1cc2nc(n1)NS(=O)(=O)c1cccc(c1)C(=O)NC[C@H](c1ccc(/C=C/C(C)(C)C)cc1)O2 (stereo in doubt) [Compound 151]
## Output +++ (+++ is >60%)

New cases:
## Input Can you look up the measured Ent. B Max Activity of C=CCCCCCC[C@@H]1COc2cc(-c3c(C)cccc3C=C)nc(n2)NS(=O)(=O)c2cccc(c2)C(=O)N1 for me?
## Output ++ (++ is 30-60%)

## Input Param item: Cc1cccc(C)c1-c1cc2nc(n1)NS(=O)(=O)c1cccc(c1)C(=O)N[C@H](C)[C@H](C)O2 [Compound 484]
## Output ++ (++ is 30-60%)

## Input Param item: Cc1cccc(C)c1-c1cc2nc(n1)NS(=O)(=O)c1cccc(c1)C(=O)N[C@H](CC(C)(C)O)CO2
## Output ++ (++ is 30-60%)
